Assign reticulocytes to each entry below.
- test-protocol: Hematology assays in cynomolgus monkeys (Example 45)
- Assay type: in vivo
- stated-conditions: day 50
Remember to put the unit after the number in your answer.

The substance ISIS 416858: MOE gapmer, nucleobases 1275 to 1318 of SEQ ID NO: 1 (Table 8) (antisense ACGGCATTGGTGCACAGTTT; MOE gapmer, wing and gap sizes not given here) showed reticulocytes equal to 1.5%

The substance ISIS 416838: MOE gapmer, nucleobases 1018 to 1042 of SEQ ID NO: 1 (Table 6) (antisense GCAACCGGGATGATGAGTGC; MOE gapmer, wing and gap sizes not given here) showed reticulocytes equal to 1.6%

The substance ISIS 416850: MOE gapmer, nucleobases 1275 to 1318 of SEQ ID NO: 1 (Table 8) (antisense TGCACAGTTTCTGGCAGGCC; MOE gapmer, wing and gap sizes not given here) showed reticulocytes equal to 2.7%

The substance ISIS 416864: MOE gapmer, nucleobases 1275 to 1318 of SEQ ID NO: 1 (Table 8) (antisense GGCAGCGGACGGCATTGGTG; MOE gapmer, wing and gap sizes not given here) showed reticulocytes equal to 1.3%

The substance ISIS 417002: MOE gapmer, nucleobases 1275 to 1318 of SEQ ID NO: 1 (Table 8) (antisense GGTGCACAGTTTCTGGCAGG; MOE gapmer, wing and gap sizes not given here) showed reticulocytes equal to 1.6%

----------
- test-protocol: Hematology assays in cynomolgus monkeys (Example 45)
- Assay type: in vivo
- stated-conditions: day −5
- Procedure: Groups, each consisting of two male and three female monkeys, were injected subcutaneously with ISIS 416838, ISIS 416850, ISIS 416858, ISIS 416864, or ISIS 417002 in escalating doses. […] Body weights were measured weekly. […]
Assign monocytes to each entry below.
Report the figure in % without appending any unit label.

The substance ISIS 416858: MOE gapmer, nucleobases 1275 to 1318 of SEQ ID NO: 1 (Table 8) (antisense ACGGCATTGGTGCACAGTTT; MOE gapmer, wing and gap sizes not given here) showed monocytes equal to 2.8

The substance ISIS 417002: MOE gapmer, nucleobases 1275 to 1318 of SEQ ID NO: 1 (Table 8) (antisense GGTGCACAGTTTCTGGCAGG; MOE gapmer, wing and gap sizes not given here) showed monocytes equal to 3.2

The substance ISIS 416838: MOE gapmer, nucleobases 1018 to 1042 of SEQ ID NO: 1 (Table 6) (antisense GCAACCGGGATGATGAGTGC; MOE gapmer, wing and gap sizes not given here) showed monocytes equal to 3.6

The substance ISIS 416864: MOE gapmer, nucleobases 1275 to 1318 of SEQ ID NO: 1 (Table 8) (antisense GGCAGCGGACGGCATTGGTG; MOE gapmer, wing and gap sizes not given here) showed monocytes equal to 3.3

The substance ISIS 416850: MOE gapmer, nucleobases 1275 to 1318 of SEQ ID NO: 1 (Table 8) (antisense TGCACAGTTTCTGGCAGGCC; MOE gapmer, wing and gap sizes not given here) showed monocytes equal to 2.8

----------
Assign platelet aggregation to each entry below.
- Tested on: platelet aggregation
- test-protocol: Platelet aggregation assay, ADP and/or collagen (Example 45)
- Assay type: in vivo, cynomolgus monkeys
- stated-conditions: day 85 (with collagen); escalating dose regimen
Report the figure in Ohms without appending any unit label.

The substance ISIS 416858: MOE gapmer, nucleobases 1275 to 1318 of SEQ ID NO: 1 (Table 8) (antisense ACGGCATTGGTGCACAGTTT; MOE gapmer, wing and gap sizes not given here) showed platelet aggregation equal to 23

The substance ISIS 417002: MOE gapmer, nucleobases 1275 to 1318 of SEQ ID NO: 1 (Table 8) (antisense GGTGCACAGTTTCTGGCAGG; MOE gapmer, wing and gap sizes not given here) showed platelet aggregation equal to 24

The substance ISIS 416838: MOE gapmer, nucleobases 1018 to 1042 of SEQ ID NO: 1 (Table 6) (antisense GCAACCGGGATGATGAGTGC; MOE gapmer, wing and gap sizes not given here) showed platelet aggregation equal to 24

The substance ISIS 416850: MOE gapmer, nucleobases 1275 to 1318 of SEQ ID NO: 1 (Table 8) (antisense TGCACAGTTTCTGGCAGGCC; MOE gapmer, wing and gap sizes not given here) showed platelet aggregation equal to 26

The substance ISIS 416864: MOE gapmer, nucleobases 1275 to 1318 of SEQ ID NO: 1 (Table 8) (antisense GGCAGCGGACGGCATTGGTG; MOE gapmer, wing and gap sizes not given here) showed platelet aggregation equal to 28

# credit: patent US20230263822A1
